Molecular target: PI3K (p110α/p85α) (Homo sapiens (Human))
Sequence (P42336 whole entry, species assumed): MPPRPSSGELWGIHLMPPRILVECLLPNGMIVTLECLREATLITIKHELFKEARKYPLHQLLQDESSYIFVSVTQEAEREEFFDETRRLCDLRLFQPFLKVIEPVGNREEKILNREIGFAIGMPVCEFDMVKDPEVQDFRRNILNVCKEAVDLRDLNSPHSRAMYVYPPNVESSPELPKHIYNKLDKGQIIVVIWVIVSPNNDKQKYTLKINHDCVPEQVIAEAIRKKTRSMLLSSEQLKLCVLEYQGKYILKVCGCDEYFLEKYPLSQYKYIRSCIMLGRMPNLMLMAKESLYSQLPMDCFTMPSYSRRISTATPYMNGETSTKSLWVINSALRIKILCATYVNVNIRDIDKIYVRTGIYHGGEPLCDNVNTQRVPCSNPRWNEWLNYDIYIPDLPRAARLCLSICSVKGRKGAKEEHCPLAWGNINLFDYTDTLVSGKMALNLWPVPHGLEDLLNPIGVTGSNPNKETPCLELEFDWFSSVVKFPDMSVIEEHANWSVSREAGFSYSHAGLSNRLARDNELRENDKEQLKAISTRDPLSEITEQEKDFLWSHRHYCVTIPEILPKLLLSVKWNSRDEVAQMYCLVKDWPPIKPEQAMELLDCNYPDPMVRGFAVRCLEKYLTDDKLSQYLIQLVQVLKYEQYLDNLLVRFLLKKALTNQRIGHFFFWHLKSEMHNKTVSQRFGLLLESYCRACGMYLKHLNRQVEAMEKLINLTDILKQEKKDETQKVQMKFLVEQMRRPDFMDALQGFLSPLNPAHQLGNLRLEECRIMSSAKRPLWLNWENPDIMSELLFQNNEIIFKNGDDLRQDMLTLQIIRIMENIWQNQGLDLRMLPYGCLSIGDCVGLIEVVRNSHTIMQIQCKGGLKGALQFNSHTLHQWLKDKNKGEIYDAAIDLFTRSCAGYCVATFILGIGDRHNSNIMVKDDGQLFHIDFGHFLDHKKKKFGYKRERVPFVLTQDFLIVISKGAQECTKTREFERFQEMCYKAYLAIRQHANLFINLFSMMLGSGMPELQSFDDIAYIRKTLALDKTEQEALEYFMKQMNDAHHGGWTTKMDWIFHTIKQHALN
Sequence (P27986 whole entry partner, species assumed): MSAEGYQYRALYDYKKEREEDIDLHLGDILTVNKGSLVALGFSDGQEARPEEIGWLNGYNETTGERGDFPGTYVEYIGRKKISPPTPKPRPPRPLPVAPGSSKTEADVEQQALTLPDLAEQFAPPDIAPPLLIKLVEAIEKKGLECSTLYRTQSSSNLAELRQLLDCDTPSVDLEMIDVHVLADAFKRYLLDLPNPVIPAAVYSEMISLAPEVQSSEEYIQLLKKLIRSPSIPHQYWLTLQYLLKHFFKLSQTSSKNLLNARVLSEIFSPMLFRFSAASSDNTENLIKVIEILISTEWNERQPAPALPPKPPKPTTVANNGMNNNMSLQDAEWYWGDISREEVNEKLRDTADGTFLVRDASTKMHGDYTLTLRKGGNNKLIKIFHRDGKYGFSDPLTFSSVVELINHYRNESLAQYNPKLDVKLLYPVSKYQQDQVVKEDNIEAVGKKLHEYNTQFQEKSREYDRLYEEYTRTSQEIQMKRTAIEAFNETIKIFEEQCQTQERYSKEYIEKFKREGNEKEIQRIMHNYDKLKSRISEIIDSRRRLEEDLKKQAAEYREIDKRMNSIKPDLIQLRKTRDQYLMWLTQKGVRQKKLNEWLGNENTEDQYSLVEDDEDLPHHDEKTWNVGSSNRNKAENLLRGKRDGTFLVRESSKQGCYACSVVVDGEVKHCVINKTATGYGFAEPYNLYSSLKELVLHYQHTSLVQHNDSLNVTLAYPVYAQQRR
Assay: PI3K HTRF enzyme assay, p110α/p85α
Format: biochemical
Settings: read-out: % inhibition @ 500 nM p110α; compound at 500 nM, 10 μM ATP
Record True whenever inhibition at 0.5 µM is at 80% or higher; record False when lower.

CSc1c(Cl)nc(-c2ccc(NC(=O)Nc3ccc(S(N)(=O)=O)cc3)cc2F)nc1N1CCOCC1: True
CCOc1cnc(-c2ccc(NC(=O)Nc3ccc(C(=O)N4CCOCC4)cc3)cc2)nc1N1CCOCC1: True
CSc1c(OCCN(C)C)nc(-c2cccc(O)c2)nc1N1CCOCC1: True
CSc1c(-c2cccnc2)nc(-c2ccc(NC(=O)Nc3ccc(N4CCOCC4=O)cc3)cc2)nc1N1CCOCC1: False
CSc1c(Cl)nc(-c2ccc(NC(=O)Nc3ccc(C(=O)N4CCN(C)CC4)cc3)cc2)nc1N1CCOCC1: True
CCOC(=O)c1nc(-c2ccc(NC(=O)Nc3ccc(C(N)=O)cc3)cc2)nc(N2CCOCC2)c1OCC: False
CSc1c(Cl)nc(-c2ccc(NC(=O)Nc3ccc(F)cc3)cc2)nc1N1CCOCC1: False
